# Study Target: Cytochrome P450 11B1, mitochondrial (Homo sapiens)
# Sequence (P15538 whole entry): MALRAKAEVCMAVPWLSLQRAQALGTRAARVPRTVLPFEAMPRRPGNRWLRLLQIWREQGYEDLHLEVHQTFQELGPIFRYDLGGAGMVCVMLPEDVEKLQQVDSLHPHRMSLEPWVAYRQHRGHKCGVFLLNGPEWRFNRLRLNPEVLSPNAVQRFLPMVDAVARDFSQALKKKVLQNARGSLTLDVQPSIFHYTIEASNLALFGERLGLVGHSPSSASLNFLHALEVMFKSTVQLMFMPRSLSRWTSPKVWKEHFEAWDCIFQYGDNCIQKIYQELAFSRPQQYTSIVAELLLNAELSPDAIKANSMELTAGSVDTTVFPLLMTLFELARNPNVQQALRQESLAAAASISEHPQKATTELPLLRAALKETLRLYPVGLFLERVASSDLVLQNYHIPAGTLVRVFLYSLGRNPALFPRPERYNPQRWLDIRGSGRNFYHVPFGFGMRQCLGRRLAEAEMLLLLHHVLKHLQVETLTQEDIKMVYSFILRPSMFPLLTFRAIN
Reported values of pIC50 for individual entries
In textbook form, pIC50 equals minus log to base ten of the concentration in mol/L.

Smiles Entry	Study Target	pIC50
CC(C)C(=O)N1CCc2cc(-c3cncc4ccccc34)ccc21	Cytochrome P450 11B1, mitochondrial (Homo sapiens)	5.22

Hello, please tell me recorded pIC50 for this one: `CC(=O)N1CCc2cc(-c3cncc(F)c3)ccc21`
5.17
